Collected pIC50 values appear next to each entry.
Assayed target: Human immunodeficiency virus type 1 protease (Human immunodeficiency virus 1, UniProt Q72874)
pIC50: −log10 of the molar value.
Reported metric: pIC50

Mol	Reported metric	Assay result
CC[C@H](C)[C@H](NC(=O)CCCOc1ccc2ccc(OCCCC(=O)N[C@H](C(=O)N[C@@H](CC(C)C)C(=O)N[C@H](C(=O)OC)C(C)C)C(C)C)cc2c1)C(=O)N[C@H](C(N)=O)[C@@H](C)O	pIC50	5.37
COC(=O)[C@@H](NC(=O)[C@H](CC(C)C)NC(=O)[C@@H](NC(=O)CCCOc1ccc2ccc(OCCCC(=O)N[C@H](C(=O)N[C@@H](CC(C)C)C(=O)N[C@H](C(=O)OC)C(C)C)C(C)C)cc2c1)C(C)C)C(C)C	pIC50	5.46
CC[C@H](C)[C@H](NC(=O)[C@H](CCC(N)=O)NC(=O)CCCOc1ccc2ccc(OCCCC(=O)N[C@H](C(=O)N[C@@H](CC(C)C)C(=O)N[C@H](C(=O)OC)C(C)C)C(C)C)cc2c1)C(=O)N[C@H](C(N)=O)[C@@H](C)O	pIC50	5.55
CC[C@H](C)[C@H](NC(=O)CCCOc1ccc2ccc(OCCCC(=O)N[C@H](C(=O)N[C@@H](CC(C)C)C(=O)N[C@H](C(=O)OC)C(C)C)C(C)C)cc2n1)C(=O)N[C@H](C(=O)N[C@@H](CC(C)C)C(=O)OC)[C@@H](C)O	pIC50	5.28
COC(=O)[C@@H](NC(=O)[C@H](CC(C)C)NC(=O)[C@@H](NC(=O)CCCOc1ccc2ccc(OCCCC(=O)N[C@@H](CCC(=O)OC(C)(C)C)C(=O)N[C@@H](CC(C)C)C(N)=O)nc2c1)C(C)C)C(C)C	pIC50	5.74
COC(=O)[C@@H](NC(=O)[C@H](CC(C)C)NC(=O)[C@@H](NC(=O)CCCOc1ccc2ccc(OCCCC(=O)N[C@@H](Cc3ccc(O)cc3)C(=O)N[C@@H](CCC(=O)OC(C)(C)C)C(=O)N[C@@H](CC(C)C)C(N)=O)cc2c1)C(C)C)C(C)C	pIC50	5.96
COC(=O)[C@@H](NC(=O)[C@H](CC(C)C)NC(=O)[C@@H](NC(=O)CCCOc1ccc2ccc(OCCCC(=O)N[C@@H](CCC(=O)O)C(=O)N[C@@H](CC(C)C)C(N)=O)cc2c1)C(C)C)C(C)C	pIC50	5.55
COC(=O)[C@@H](NC(=O)[C@H](CC(C)C)NC(=O)[C@@H](NC(=O)CCCOc1ccc2ccc(OCCCC(=O)N[C@H](C(=O)N[C@@H](CC(C)C)C(=O)N[C@H](C(=O)OC)C(C)C)C(C)C)nc2c1)C(C)C)C(C)C	pIC50	5.85
COC(=O)[C@H](CC(C)C)NC(=O)[C@@H](NC(=O)CCCOc1ccc2ccc(OCCCC(=O)N[C@H](C(=O)N[C@@H](CC(C)C)C(=O)N[C@H](C(=O)OC)C(C)C)C(C)C)cc2c1)[C@@H](C)O	pIC50	5.40
